Data origin, for the record: patent US20170253607A1

Quick list: pIC50 per entry.
biological target: UniProt P04585; assay: HIV-protease inhibitory activity assay (FRET peptide substrate); type: biochemical; settings: Test Example 1
Give only the number. pIC50 is defined as minus log10 of concentration in molar units.

Recorded results for 2 compounds are shown here.
COc1ccc(S(=O)(=O)N(CC(C)C)CC(O)C(Cc2ccc(OCc3ccccc3-c3ccc(Cn4nc(C(=O)O)c5c4CCC(C)(C)C5)cc3)cc2)NC(=O)OC2COC3(C)OCCC23)cc1 (stereo not drawn) [Compound I-213]
8.75
COc1ccc(S(=O)(=O)N(CC(C)C)CC(O)C(Cc2ccc(NCc3ccccc3-c3cccc4[nH]c(C(=O)O)cc34)cc2)NC(=O)OC2COC3(C)OCCC23)cc1 (stereo not drawn) [Compound I-502]
8.73

Read the next record carefully.
Kindly note the recorded pIC50 for COc1ccc(S(=O)(=O)N(CC(C)C)CC(O)C(Cc2ccc(N(C)CC3COCCC3c3sc4c(c3C(=O)O)CC(C)(C)CC4)cc2)NC(=O)OC2COC3(C)OCCC23)cc1 (stereo not drawn) [Compound I-401] , which is 8.75
